Exercise: state measured pKd for each of the binders provided.
Target: T1, rat FcRn (rat, UniProt P13599 23-298; P07151 21-119, limits assumed)
T1 sequence (looked up) 1: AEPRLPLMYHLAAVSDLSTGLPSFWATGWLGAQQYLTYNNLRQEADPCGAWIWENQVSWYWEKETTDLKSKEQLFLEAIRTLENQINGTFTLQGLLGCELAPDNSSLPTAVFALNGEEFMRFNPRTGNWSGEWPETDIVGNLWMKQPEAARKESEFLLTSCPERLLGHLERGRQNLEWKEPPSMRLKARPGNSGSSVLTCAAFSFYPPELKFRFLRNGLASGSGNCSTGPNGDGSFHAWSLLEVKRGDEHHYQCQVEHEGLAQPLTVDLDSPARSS
T1 sequence (looked up) 2: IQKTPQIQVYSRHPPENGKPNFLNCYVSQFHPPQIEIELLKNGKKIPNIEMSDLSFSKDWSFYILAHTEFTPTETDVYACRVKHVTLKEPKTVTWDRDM
Assay: SPR, pH 7.4
Give bare numbers, as −log10 of the molar value.

Fc Fragment 1 (other, Human IgG1 Fc fragment (EU 221-446) with the named substitutions already in the entry; also called Efgartigimod (Efgart); Efgartigimod without the C-terminal lysine) DKTHTCPPCPAPELLGGPSVFLFPPKPKDTLYITREPEVTCVVVDVSHEDPEVKFNWYVDGVEVHNAKTKPREEQYNSTYRVVSVLTVLHQDWLNGKEYKCKVSNKALPAPIEKTISKAKGQPREPQVYTLPPSRDELTKNQVSLTCLVKGFYPSDIAVEWESNGQPENNYKTTPPVLDSDGSFFLYSKLTVDKSRWQQGNVFSCSVMHEALKFHYTQKSLSLSPG :: 7.91

// switching to the query binder
Ask | // pKd lookup, key: Fc Fragment 3 (other, Human IgG1 Fc fragment; substitutions already in the entry; also called Fc197) DKTHTCPPCPAPELLGGPSVFLFPPKPKDTLYITREPEVTCVVVDVSHEDPEVKFNWYVDGVEVHNAKTKPREEQYNSTYRVVSVLTVLHQDWLNGKEYKCKVSNKALPAPIEKTISKAKGQPREPQVYTLPPSRDELTKNQVSLTCLVKGFYPSDIAVEWESNGQPENNYKTTPPVLDSDGSFFLYSKLTVDKSRWQQGNVFSCSVMHEALKYHYTQKSLSLSPG
Reply | 7.83
